Plat: recorded values
Species on record: Rattus norvegicus
Test: Open TG-GATES - Regimen: Single
Type: toxicity, organism-based, Sprague-Dawley
Parameters: regimen Single, gender Male, age 6 weeks
Details: in vivo, po, 100 mg/kg, 9 h, tissue Blood, route gavage, dose level Low
// return numeric value only (unit: x10_4/uL, not printed)

Use these answered entries as a reference point.
Molecule: CNC(=C[N+](=O)[O-])NCCSCc1ccc(CN(C)C)o1 [RANITIDINE]
Plat, x10_4/uL: 116.5

Molecule: CN/C(=N/CCSCc1nc[nH]c1C)NC#N [CIMETIDINE]
Plat, x10_4/uL: 128.2

Molecule: O=C(OC[C@H]1O[C@@H](OC(=O)c2cc(O)c(O)c(OC(=O)c3cc(O)c(O)c(O)c3)c2)[C@H](OC(=O)c2cc(O)c(O)c(OC(=O)c3cc(O)c(O)c(O)c3)c2)[C@@H](OC(=O)c2cc(O)c(O)c(OC(=O)c3cc(O)c(O)c(O)c3)c2)[C@@H]1OC(=O)c1cc(O)c(O)c(OC(=O)c2cc(O)c(O)c(O)c2)c1)c1cc(O)c(O)c(OC(=O)c2cc(O)c(O)c(O)c2)c1 [TANNIC ACID]
Plat, x10_4/uL: 112.9

Molecule: COC(=O)C1=C(C)NC(C)=C(C(=O)OC)C1c1ccccc1[N+](=O)[O-] [NIFEDIPINE]
Plat, x10_4/uL: 127.7

From here, focus on the item given below.
Q. Suppose we examine the molecule Cc1nnc2n1-c1ccc(Cl)cc1C(c1ccccc1Cl)=NC2 [TRIAZOLAM] ; what Plat value has been reported?
A. 122.5
